TARGET_OF_ASSAY: T1, recombinant human OX40L (extracellular domain, R&D Systems) (human, UniProt P23510 51-183)
T1 construct: also called hOX40L; rec. hOX40L
T1 sequence: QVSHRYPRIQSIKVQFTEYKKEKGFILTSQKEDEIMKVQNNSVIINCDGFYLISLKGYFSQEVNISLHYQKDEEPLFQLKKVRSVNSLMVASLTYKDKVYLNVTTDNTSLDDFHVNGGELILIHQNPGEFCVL
EXPERIMENT_DESCRIPTION: SPR, second injection after competitor OX40L01B11

| BINDER | Binding Level sample 2 - sample 1 (RU) |
| --- | --- |
| OX40L18E09 (VHH, monovalent Nanobody from E. coli; not shown: C-terminal c-myc and His6 tag) VHH: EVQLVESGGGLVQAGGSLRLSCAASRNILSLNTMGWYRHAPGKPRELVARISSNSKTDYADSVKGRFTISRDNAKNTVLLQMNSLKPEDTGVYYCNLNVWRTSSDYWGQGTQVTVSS | -7 |
| OX40L01B11 (VHH, monovalent Nanobody from E. coli; not shown: C-terminal c-myc and His6 tag) VHH: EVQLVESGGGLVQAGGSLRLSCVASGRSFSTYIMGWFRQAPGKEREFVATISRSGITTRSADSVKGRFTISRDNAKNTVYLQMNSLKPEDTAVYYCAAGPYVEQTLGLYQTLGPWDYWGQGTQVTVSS | 7 |
| OX40L01E10 (VHH, monovalent Nanobody from E. coli; not shown: C-terminal c-myc and His6 tag) VHH: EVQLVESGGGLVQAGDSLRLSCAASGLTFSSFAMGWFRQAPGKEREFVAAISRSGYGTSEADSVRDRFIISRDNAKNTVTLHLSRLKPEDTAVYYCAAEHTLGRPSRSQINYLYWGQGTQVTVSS | -7 |
